- Assayed target: mouse RORγ (Mus musculus)
- Construct: mouse RORγ, from Ile251 to Lys516; expressed in transfected cells; host or cells: CHO cells (Chinese hamster ovary), transient co-transfection with pG5-Luc
- Procedure details: In vitro assay of inhibitory effect against RORγ transcriptional activity (GAL4-mRORγ LBD luciferase reporter gene assay in CHO cells)
- Type: cell-based
- Condition context: GAL4-mRORγ LBD / pG5-Luc in CHO cells, 2 days incubation

| Test smiles | EC50 |
| --- | --- |
| CC(C)C1=CN(CCC(=O)O)C(=O)N[C@]1(C)c1ccc(CCCC(C)(C)C)c(Cl)c1 | > 3.2 µM |
| CC(C)C1=CN(CCCC(=O)O)C(=O)N[C@]1(C)c1ccc(CCC(C)(C)C)c(Cl)c1 | > 8 µM |
| CC(C)C1=CN(CCC(C)(C)C(=O)O)C(=O)N[C@]1(C)c1ccc(CCC(C)(C)C)c(Cl)c1 | > 8 µM |
| CC(C)C1=CN(CCC(=O)O)C(=O)N[C@]1(C)c1ccc(C2=CCCC2)c(Cl)c1 | > 8 µM |
| CC(C)C1=CN(CCC(=O)O)C(=O)N[C@@]1(C)c1ccc(OCCC(C)(C)C)c(Cl)c1 | < 0.032 µM |
| CC(C)C1=CN(CCC(=O)O)C(=O)N[C@]1(C)c1ccc(CCc2ccccc2)c(Cl)c1 | > 8 µM |
| CC(C)C1=CN(CCC(=O)O)C(=O)N[C@]1(C)c1ccc(C2=CCCCC2)c(Cl)c1 | > 8 µM |

====

- Assayed target: mouse RORγ (Mus musculus, UniProt P51450)
- Construct: mouse RORγ, from Ile251 to Lys516; expressed in transfected cells; host or cells: CHO cells (Chinese hamster ovary), transient co-transfection with pG5-Luc
- Sequence (P51450 251-516): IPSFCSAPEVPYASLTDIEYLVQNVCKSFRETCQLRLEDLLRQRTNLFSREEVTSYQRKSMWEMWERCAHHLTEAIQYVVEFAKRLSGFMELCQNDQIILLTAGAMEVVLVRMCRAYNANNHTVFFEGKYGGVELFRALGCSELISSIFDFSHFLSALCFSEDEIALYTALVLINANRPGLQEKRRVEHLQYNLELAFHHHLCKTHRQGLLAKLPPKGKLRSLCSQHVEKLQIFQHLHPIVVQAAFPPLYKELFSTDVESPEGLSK
- Procedure details: In vitro assay of inhibitory effect against RORγ transcriptional activity (GAL4-mRORγ LBD luciferase reporter gene assay in CHO cells)
- Type: cell-based
- Condition context: GAL4-mRORγ LBD / pG5-Luc in CHO cells, 2 days incubation
pEC50: −log10 of the molar value.
Would you please tag the item T when its pEC50 is 6 or above, and F when it is below?

| Compound | Assigned class |
| --- | --- |
| CC(C)C1=CN(CC[C@@H](O)C(=O)O)C(=O)N[C@]1(C)c1ccc(CCC(C)(C)C)c(Cl)c1 | T |
| CC(C)C1=CN(CCC(=O)O)C(=O)N[C@@]1(C)c1cc(F)c(/C=C/C(C)(C)C)c(Cl)c1 | T |
| CC(C)C1=CN(CCC(=O)O)C(=O)N[C@@]1(C)c1ccc(CCC2CCC2)c(Cl)c1 | T |
| CC1=CN(CCCC(=O)O)C(=O)N[C@@]1(C)c1ccc(CCC(C)(C)C)c(Cl)c1 | T |
| CC(C)C1=CN([C@@H]2CC(=O)N(CC(=O)O)C2)C(=O)N[C@@]1(C)c1ccc(CCC(C)(C)C)c(Cl)c1 | T |
| CC(C)C1=CN(CCCC(=O)O)C(=O)NC1(C)c1ccc(OCC(C)(C)C)c(Cl)c1 (single isomer, unassigned) [Example 13] | F |
| CC(C)C1=CN(CCC(=O)O)C(=O)N[C@@]1(C)c1ccc(CCCC(C)(C)C)c(Cl)c1 | T |
| CC(C)C1=CN(C2CCC(C(=O)O)C2)C(=O)N[C@@]1(C)c1ccc(CCC(C)(C)C)c(Cl)c1 (single isomer, unassigned) | T |
| CCCCCc1ccc(C2(C)NC(=O)N(CCCC(=O)O)C=C2C(C)C)cc1Cl (racemic) | T |
| CC(C)C1=CN(CCOCC(=O)O)C(=O)NC1(C)c1ccc(CCC(C)(C)C)c(Cl)c1 (single isomer, unassigned) [Example 39] | T |
| CC(C)(C)COc1ccc(C2NC(=O)N(CCCC(=O)O)C=C2C(C)(C)C)cc1Cl (single isomer, unassigned) [Example 6] | F |
| CC(C)(C)CCc1ccc([C@@]2(C)NC(=O)N([C@H]3C[C@H](C(=O)O)C3)C=C2C2CC(F)(F)C2)cc1Cl | F |
| CC(C)C1=CN(CC(C)(C)CC(=O)O)C(=O)N[C@]1(C)c1ccc(CCC(C)(C)C)c(Cl)c1 | F |
| CC(C)(C)CCc1ccc(C2(C)NC(=O)N(CCCC(=O)O)C=C2C(C)(C)C)cc1Cl (racemic) | T |
| CC(C)C1=CN(C23CC(C(=O)O)(C2)C3)C(=O)N[C@]1(C)c1ccc(CCC(C)(C)C)c(Cl)c1 | F |
| CC(C)C1=CN([C@H]2C[C@H](C(=O)O)C2)C(=O)N[C@]1(C)c1ccc(CCC(C)(C)C)c(Cl)c1 | F |
